Tested on: Serratia marcescens
Assay: MIC against Gram-negative bacteria: Serratia marcescens
Assay type: cell-based
Settings: S. marcescens; 10 h cultivation at 37° C.; 5×10^5 CFU/mL
Protocol: 1. Gram-negative bacteria, such as E. coli BL21, Pseudomonas aeruginosa, Klebsiella pneumonia, Enterobacter cloacae, Aeromonas hydrophila, Citrobacter diversus, Moraxella catarrhalis, Proteus mirabilis, Proteus vulgaris, Serratia marcescens, etc were streaked on solid LB medium and cultured respectively. Then, typical clones were picked, inoculated into common liquid LB medium respectively, and cultured at 37° C. with shaking at 185 rpm until the McFarland specific turbidity was 0.5. […]
Can you tell me MIC (μg/mL) S. marcescens for the items I'm about to list?
Write the value in µg/mL as a bare number.

For the substance PRT191 (PCLRKYKDFCIHGECKYVKELRAPSCICHPGYHGERCH; listed as Homo sapiens) , what MIC (μg/mL) S. marcescens is on record?
12.5

// query: PRT820 (YGDNCRHSCLCQNGGTCDPVSGHCACPEGWAGLACE; listed as Homo sapiens)
25

// query: PRT889 (DVNECVSNPCQNDATCLDQIGEFQCICMPGYEGVHCE; listed as Homo sapiens)
25

// query: PRT194 (CRSKCHGHGVCDSNRHCYCEEGWAPPDCT; listed as Homo sapiens)
12.5

// query: PRT171 (CDPSPCKNGGSCTDLENSYSCTCPPGFYGKIC; listed as Homo sapiens)
25

// query: PRT763 (ALDRCALNTHGCEHICVNDRSGSYHCECYEGYTLNEDRKTCS; listed as Homo sapiens)
25

// query: PRT216 (DIDECTAGTHNCRADQVCINLRGSFACQCPPGYQKRGEQCV; listed as Homo sapiens)
25

// query: PRT263 (CSKNNGGCSPYATCKSTGDGQRTCTCDTAHTVGDGLTC; listed as Homo sapiens)
50

// query: PRT148 (LTDICSVSNGGCHPDASCSSTLGSLPLCTCLPGYTGN; listed as Homo sapiens)
50

// query: PRT843 (CQCNGHGDPRRGHCDNLSGLCFCQDHTEGAHCQLCSPGYYGDPRAGGSCFR; listed as Homo sapiens)
50

// query: PRT811 (FGKNCSFSCSCQNGGTCDSVTGACRCPPGVSGTNCE; listed as Homo sapiens)
25

// query: PRT833 (CEANNGGCSHGCSHTSAGPLCTCPRGYELDTDQRTC; listed as Homo sapiens)
12.5

// query: PRT203 (CSPAFCNKRGICNNKHHCHCNYLWDPPNCL; listed as Homo sapiens)
50

// query: PRT891 (DVDECASTPCKNGAKCLDGPNTYTCVCTEGYTGTHCE; listed as Homo sapiens)
50

// query: PRT835 (DVDECASSRGGCEHHCTNLAGSFQCSCEAGYRLHEDRRGCS; listed as Homo sapiens)
25

// query: PRT156 (DINECDSNPCHHGGSCLDQPNGYNCHCPHGWVGANCE; listed as Homo sapiens)
50

// query: PRT215 (YTQCTDGYEWDPVRQQCKDIDECDIVPDACKGGMKCVNHYGGYLCL; listed as Homo sapiens)
12.5

// query: PRT209 (DVDECAQALHDCRPSQDCHNLPGSYQCTCPDGYR; listed as Homo sapiens)
12.5

// query: PRT850 (CQCHGHVDPVKTPKICKPESGECINCLHNTTGFWCENCLEGYVHDLEGNCIK; listed as Homo sapiens)
50

// query: PRT838 (GLQECSAYCGSHGTCASPLGPCRCEPGFLGRACD; listed as Homo sapiens)
25

// query: PRT221 (YTECTDGYEWDPDSQHCRDVNECLTIPEACKGEMKCINHYGGYLCL; listed as Homo sapiens)
12.5

// query: PRT188 (HVSDCARNPCAHGGTCHDLENGLMCTCPAGFSGRRCE; listed as Homo sapiens)
12.5

// query: PRT806 (FGFQCSQHCDCHNGGQCSPTTGACECEPGYKGPRCQ; listed as Homo sapiens)
25

// query: PRT819 (YGHNCSQACACFNGASCDPVHGQCHCAPGWMGPSCL; listed as Homo sapiens)
25

// query: PRT848 (CQCNNRSASCDALTGACLNCQENSKGNHCEECKEGFYQSPDATKECLR; listed as Homo sapiens)
12.5

// query: PRT871 (CYCNPLGSIHDRCNGSGFCECKTGTTGPKCDECLPGNSWHYGCQPNVCDN; listed as Homo sapiens)
12.5

// query: PRT744 (GWNECASSNGHCSHLCLAVPVGGFVCGCPAHYSLNADNRTCS; listed as Homo sapiens)
12.5

// query: PRT168 (CLPGCDEQHGFCDKPGECKCRVGWQGRYC; listed as Homo sapiens)
12.5

// query: PRT747 (DIDECKDPDACSQICVNYKGYFKCECYPGYEMDLLTKNCK; listed as Homo sapiens)
12.5

// query: PRT240 (NINECEVEPCKNGGICTDLVANYSCECPGEFMGRNCQ; listed as Homo sapiens)
12.5

// query: PRT805 (FGQNCSQDCPCHHGGQCDHVTGQCHCTAGYMGDRCQ; listed as Homo sapiens)
12.5

// query: PRT254 (PCLEGGTCILSPKGASCNCPHPYTGDRCE; listed as Homo sapiens)
12.5

Origin of the recorded values: patent US9833497B2
